hey, just use t if measured logP is less than 3, otherwise f

Please review the entries below; each comes with its answer.
CN(C)c1nc(N(C)C)nc(N(C)CCO)n1 = t
CCCCn1c(=O)n(C)c(=O)c2[nH]cnc21 = t
CC(C)c1cc(C(C)C)cc(C2C(=O)c3ccccc3C2=O)c1 = f

Please let me know if COC(=O)c1nc(NCC(O)CO)cnc1[N+](=O)[O-] (configuration not stated) shows logP below 3. t

Please let me know if CCC(C(=O)OCc1ccc(C)cc1)C(COC(=O)C(C)(C)C)Cc1cncn1C (configuration not stated) shows logP below 3. f

Please let me know if `NNC(=O)c1ccnc(I)c1` shows logP below 3. t

Please let me know if CCCCCc1cc(O)c2c(c1)OC(C)(C)C1CC=C(C)CC21 (configuration not stated) shows logP below 3. f

Please let me know if `CCCCCCCCCCCCCC(=O)O` shows logP below 3. f

Please let me know if CC(=O)OCC1OC(n2ccc(N)nc2=O)C(OC(C)=O)C1OC(C)=O (configuration not stated) shows logP below 3. t

Please let me know if COc1cc(C(=O)OC2N=C(c3ccccc3)c3cc(Cl)ccc3NC2=O)cc(OC)c1OC (configuration not stated) shows logP below 3. f

Please let me know if CNC1CCc2ccccc2C1 (configuration not stated) shows logP below 3. t

Please let me know if `Cn1c([N+](=O)[O-])cnc1/C=C/c1ccnc(N)n1` shows logP below 3. t

Please let me know if CCCCCCC(C)(C)c1cc(O)c2c(c1)OC(C)(C)C1CCC(C=O)=CC21 (configuration not stated) shows logP below 3. f
